Data origin: PubChem BioAssay (NCI)

- protocol description: NCI Yeast Anticancer Drug Screen. Data for the cln2 rad14 strain (AID 165)
- condition notes: S. cerevisiae cln2 rad14 strain, at 5.0 µM (retest, dose inferred, filed as 0.5)
About 79,000 compounds went through this panel and 15% of them were active in at least one assay; those are over-represented in the sample as a whole. Active and inactive are the calls of the source. Cut-off read from the data, not from the text of the source: active = growth inhibition above about 70%; inactive = the rest.
Just give me one of these, please: active, inactive

Some solved cases for reference:
1) O=C(/C=C/c1ccccc1)CCN1CCN(CCC(=O)/C=C/c2ccccc2)CC1	active
2) O=C(Nc1ccc(Cl)cc1)Nc1nnc2nc(C(C(=O)c3ccc(F)cc3)c3nc4nnc(NC(=O)Nc5ccc(Cl)cc5)n4[nH]c3=O)c(=O)[nH]n12	inactive
3) CC1c2cc(c3c(c2O)CN([C@@H](C)C2CCCCC2)CO3)C(C)c2cc(c3c(c2O)CN([C@@H](C)C2CCCCC2)CO3)C(C)c2cc(c3c(c2O)CN([C@@H](C)C2CCCCC2)CO3)C(C)c2cc1c1c(c2O)CN([C@@H](C)C2CCCCC2)CO1 (some centres not stated)	inactive

Which outcome was entered for the compound Cn1c(=O)nc2n(-c3ccc(Cl)cc3)c3cc(Cl)ccc3nc-2c1=O in this test?
inactive

Which outcome was entered for the compound CC1=C(C(=O)Nc2ccccc2Cl)C(c2cccc([N+](=O)[O-])c2)C(C(=O)Nc2ccccc2Cl)=C(C)N1 in this test?
inactive

Which outcome was entered for the compound CC(=O)OC1COC(N2C(=O)C(=O)c3cc(Br)ccc32)C(OC(C)=O)C1OC(C)=O (configuration not stated) in this test?
inactive

Which outcome was entered for the compound O=[N+]([O-])c1ccccc1N=Nc1c(O)[nH]c2cccc(C(F)(F)F)c12 in this test?
inactive
